Cited source: ChEMBL document CHEMBL3988442

- assay-target: Aspartate--tRNA(Asp/Asn) ligase (Mycobacterium tuberculosis (strain ATCC 25618 / H37Rv)) (UniProt P9WFW3)
- Sequence (P9WFW3 whole entry): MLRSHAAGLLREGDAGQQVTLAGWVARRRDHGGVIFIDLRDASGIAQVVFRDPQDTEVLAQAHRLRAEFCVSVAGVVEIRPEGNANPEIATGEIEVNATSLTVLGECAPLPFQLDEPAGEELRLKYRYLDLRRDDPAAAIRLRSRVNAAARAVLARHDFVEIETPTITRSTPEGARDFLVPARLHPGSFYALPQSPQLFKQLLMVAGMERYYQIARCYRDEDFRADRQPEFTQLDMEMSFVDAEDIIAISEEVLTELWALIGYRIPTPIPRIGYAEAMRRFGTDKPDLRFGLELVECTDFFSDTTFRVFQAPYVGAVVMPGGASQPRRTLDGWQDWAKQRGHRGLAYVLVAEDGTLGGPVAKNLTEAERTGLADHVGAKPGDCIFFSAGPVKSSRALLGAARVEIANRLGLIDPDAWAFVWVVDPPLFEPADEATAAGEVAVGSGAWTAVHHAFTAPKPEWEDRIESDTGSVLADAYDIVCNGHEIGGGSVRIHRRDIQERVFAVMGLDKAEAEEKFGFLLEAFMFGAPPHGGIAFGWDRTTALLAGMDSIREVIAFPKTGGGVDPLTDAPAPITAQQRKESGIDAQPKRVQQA
- protocol-summary: Assay for Asp RNA synthetase-1 from Mycobacterium tuberculosis
- Format: functional
- Design: scale not given: in the data most compounds retested in dose-response had high values
- stated-conditions: 30 µM
This listing pairs compounds with measured Percent Effect.

Solved cases (5 shown):
O=C(C1CC=CC1)N1C[C@@H]2[C@@H](C1)OCC(=O)N2Cc1cccnc1	1.21%
NC(=O)CC1CCN(C(=O)NCc2ccccc2-n2cccn2)CC1	-3.48%
Cc1cnn(CCNCc2csc(-c3ccc4c(c3)OCO4)n2)c1	1.41%
Cc1occc1C(=O)N1CCCC2(CCN(CCN3CCCC3)C2=O)C1 (centres undefined)	1.84%
CC(c1cccc(S(N)(=O)=O)c1)N(C)CCc1ccccc1 (centres undefined)	5.72%

Quick one: give measured Percent Effect for CN(C)CC1CN(Cc2coc(-c3cccs3)n2)CCO1 (centres undefined)
2.66%

Quick one: give measured Percent Effect for CCCc1cc(C(=O)N2CCCC(n3ccnc3C)C2)[nH]n1 (centres undefined)
-3%

Quick one: give measured Percent Effect for `CCc1cnc2c(c1Nc1ccc(OC)cc1)c(=O)n(C)c(=O)n2C`
0.831%
